molecular target: Receptor tyrosine-protein kinase erbB-2 (Homo sapiens) (UniProt P04626); test: reducers of endogenous Her2 protein level, primary screen, SKBR3 breast tumor cells, AlphaScreen, ATP viability (AID 461); details: 18-24 h, at 10 µM, active compounds read low;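 further: lower value means less Her2 protein in the cells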
Sequence (P04626 whole entry, looked up): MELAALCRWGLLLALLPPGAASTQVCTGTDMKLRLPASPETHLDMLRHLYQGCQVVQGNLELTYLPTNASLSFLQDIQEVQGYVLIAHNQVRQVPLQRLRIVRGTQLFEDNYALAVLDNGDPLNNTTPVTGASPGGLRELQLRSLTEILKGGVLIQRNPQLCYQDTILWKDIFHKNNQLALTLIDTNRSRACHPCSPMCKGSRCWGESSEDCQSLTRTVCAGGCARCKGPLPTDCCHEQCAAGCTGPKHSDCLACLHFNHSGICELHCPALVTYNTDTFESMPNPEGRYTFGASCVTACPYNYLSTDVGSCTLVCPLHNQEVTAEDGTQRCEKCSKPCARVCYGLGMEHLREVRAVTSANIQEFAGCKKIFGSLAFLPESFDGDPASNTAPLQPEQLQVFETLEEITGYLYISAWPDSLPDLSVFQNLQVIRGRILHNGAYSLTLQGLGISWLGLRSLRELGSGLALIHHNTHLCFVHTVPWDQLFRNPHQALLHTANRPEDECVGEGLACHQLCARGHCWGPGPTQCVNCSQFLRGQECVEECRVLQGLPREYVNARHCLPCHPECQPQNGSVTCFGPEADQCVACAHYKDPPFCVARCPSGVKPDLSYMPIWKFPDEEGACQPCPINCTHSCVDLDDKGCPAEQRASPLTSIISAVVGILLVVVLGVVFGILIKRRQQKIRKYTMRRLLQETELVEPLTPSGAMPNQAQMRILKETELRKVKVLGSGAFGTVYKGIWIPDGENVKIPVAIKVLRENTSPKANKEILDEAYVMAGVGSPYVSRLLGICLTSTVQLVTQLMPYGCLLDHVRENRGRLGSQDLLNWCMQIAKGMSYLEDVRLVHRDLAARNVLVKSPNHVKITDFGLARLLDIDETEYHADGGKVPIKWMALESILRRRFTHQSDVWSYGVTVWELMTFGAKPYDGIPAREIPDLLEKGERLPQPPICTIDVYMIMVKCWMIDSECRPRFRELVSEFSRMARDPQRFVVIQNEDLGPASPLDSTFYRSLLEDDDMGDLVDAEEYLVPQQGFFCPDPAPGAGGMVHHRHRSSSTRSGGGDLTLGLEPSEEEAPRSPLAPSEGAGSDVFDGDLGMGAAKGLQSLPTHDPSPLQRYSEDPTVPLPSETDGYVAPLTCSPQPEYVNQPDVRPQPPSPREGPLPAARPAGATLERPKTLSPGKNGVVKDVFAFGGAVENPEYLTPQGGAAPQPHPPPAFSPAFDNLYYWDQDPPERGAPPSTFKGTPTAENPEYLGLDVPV
Item-by-item account of Her2 level
Please give a number only; it is taken to be in %.

Consider the worked cases shown below.
>>> testresult("CC(C)(C)OC(=O)N1CCOCCOCCN(C(=O)OC(C)(C)C)CCOCCOCC1")
112
>>> testresult("O=C(O)c1cccc(NC(=O)C2C3C=CC(C3)C2C(=O)OCC(F)(F)C(F)F)c1 (stereo unspecified)")
91.5
>>> testresult("Cn1c(=O)c2c(nc(NCc3ccco3)n2C/C=C/c2ccccc2)n(C)c1=O")
84.5
>>> testresult("COc1ccc(S(=O)(=O)N(CCN2CCOCC2)Cc2cc(OC)ccc2OC)cc1")
88.5
>>> testresult("CCOC(=O)C1CCN(C(=O)Nc2ccc3snnc3c2)CC1")
88.5
>>> testresult("CCOC(=O)N1CCN(Cc2ccccc2F)CC1")
81
>>> testresult("COc1cc(-c2noc(-c3ccccc3C(=O)NCc3ccco3)n2)cc(OC)c1OC")
72.5
>>> testresult("CCC(C)(C)NC(=O)CN(C(=O)c1snc(C(N)=O)c1N)c1ccc2c(c1)OCO2")
94

Query: Supply recorded Her2 level for "Cc1ccccc1NS(=O)(=O)c1cc(C(=O)N2CCCC2)ccc1C" here.
Reply: 91.5

Query: Recall and state the measured Her2 level for "COC(=O)[C@H](CCSC)NC(=O)Nc1cc(C)ccc1C" .
Reply: 89

Query: Return value of Her2 level for input Cc1ccc2c(c1)CCCN2C(=O)C1CCCO1 (stereo unspecified) , no commentary.
Reply: 100

Query: Provide Her2 level value for the following compound: C/C(CC(O)(/C=N/O)c1ccccc1)=N\O (stereo unspecified)
Reply: 91.5

Query: Using known records, supply Her2 level for "CCCOC(=O)/C(C(N)=NCc1ccccc1)=C(\O)OCCC"
Reply: 95

Query: Read off the recorded Her2 level for "Cc1cc2ncn(S(=O)(=O)c3ccc(S(=O)(=O)N4CCOCC4)cc3)c2cc1C"
Reply: 91.5

Query: # return recorded Her2 level for input "CC(=O)NCc1ccc(C(=O)CSc2nnc(-c3ccncc3)n2Cc2ccccc2)o1"
Reply: 92.5

Query: Identify measured Her2 level associated with CC1Cc2ccccc2N1C(=O)CSc1nc2ccccc2n1CC(=O)N1CCOCC1 (stereo unspecified)
Reply: 91

Query: Output measured Her2 level for this item: "CO[C@H]1C=CO[C@@]2(C)Oc3c(C)c(O)c4c(O)c(c(C=NN5CCN(C)CC5)c(O)c4c3C2=O)NC(=O)C(C)=CC=C[C@H](C)[C@H](O)[C@@H](C)[C@@H](O)[C@@H](C)[C@H](OC(C)=O)[C@@H]1C"
Reply: 85.5

Query: Hello, please tell me recorded Her2 level for this one: O=C1CC(c2ccsc2)c2cc3c(cc2N1)OCCO3 (stereo unspecified)
Reply: 98.5

Query: Supply measured Her2 level of CC(C)C(C(=O)Nc1ccc2c(c1)OCO2)N1C(=O)c2ccccc2C1=O (stereo unspecified) in your reply.
Reply: 92

Query: Assign Her2 level to the following record: "Cc1nn(C)cc1/C=N/O"
Reply: 105

Query: Please report Her2 level for the following compound: "CCOc1ccccc1N1CCN(C(=O)c2ccncc2)CC1"
Reply: 100

---

assay: HUVEC growth inhibition – cell-based, human, primary screen (AID 575); conditions: HUVEC proliferation, CellTiter-Glo luminescence, 72 h; at 10 µM; active compounds read low;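 further: 100% = median of untreated cell wells with 0.1% DMSO on each plate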
viability values, listed per item
Field: numeric (%). Do not append units.

Example entries and their recorded answers appear below.
>>> testresult("Cc1cc(C)n(S(=O)(=O)c2cc(C(=O)O)c(Cl)cc2Cl)n1")
102
>>> testresult("OC(CN1CCCCC1)Cn1c(C(F)(F)F)nc2ccccc21 (stereo unspecified)")
105
>>> testresult("CC(=O)SCC(=O)N=c1sc2cc(F)ccc2n1C")
75.5
>>> testresult("COc1ccc(C(=O)CSc2nc(C)cc(=O)[nH]2)cc1")
99.7
>>> testresult("CCOc1nc(-c2ccccc2)ccc1-c1noc(-c2ccc(OC)c(OC)c2)n1")
85.1

Below: the item to evaluate.
Query: Please report viability for the following compound: "CCOC(=O)c1c(C)[nH]c(C)c1C(=O)COC(=O)CNC(=O)c1ccc(OCC)cc1"
Reply: 77.9

---

# maps each entry to its viability
experiment: HUVEC growth inhibition – cell-based, human, primary screen (AID 575); conditions: HUVEC proliferation, CellTiter-Glo luminescence, 72 h; at 10 µM; active compounds read low;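 further: 100% = median of untreated cell wells with 0.1% DMSO on each plate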
Give the number; % is assumed, so skip it.

Would you please look over these solved cases?
>>> testresult("C=CCn1c(=S)[nH]c2nc3c(cc2c1=O)COC(C)(C)C3")
90
>>> testresult("CCCNC(=O)C1=C(C)C(=O)OC12CCC(C)CC2 (stereo not drawn)")
87.2
>>> testresult("CCOC(=O)c1cccc(NC(=O)C2CCN(S(=O)(=O)c3cccs3)CC2)c1")
60.7
>>> testresult("CCOc1cc(NC(=O)c2ccco2)c(OCC)cc1NC(=O)COc1ccccc1C")
60.9
>>> testresult("CN1CCN(C(=O)c2ccc3c(=O)n(CCc4ccccc4)c(=S)[nH]c3c2)CC1")
66.2
>>> testresult("CN(C)S(=O)(=O)c1ccc(C(=O)N2CCCC2c2nc3ccccc3s2)cc1 (stereo not drawn)")
91.1
>>> testresult("COc1ccc(N2CCN(C(=O)CSc3nnc(Cn4nnc5ccccc54)n3C)CC2)cc1")
108
>>> testresult("CC(C)(C)c1nnc(NC(=O)C2CCN(c3ncccn3)CC2)s1")
115

Query: Quote viability reported for "O=C(c1csc2ccccc12)n1cccn1" please.
Reply: 89.7

Query: Determine from records and report viability for "Cn1c(CN2CCCCC2)nc2cc(NC(=O)c3ccccc3)ccc21"
Reply: 102

Query: For the molecule O=C(Nc1ccc(Cl)c(C(F)(F)F)c1)N1CCCC(O)C1 (stereo not drawn) , report viability.
Reply: 107

Query: Read the entry "Cc1cc(C)c(S(=O)(=O)N(C)CC(N)=O)c(C)c1" and write its reported viability.
Reply: 95

---

assay: SK-BR-3 cell growth inhibitors, pilot screen, 24 h, human (AID 572); settings: SK-BR-3 viability, CellTiter-Glo luminescence, at 10 µM, active compounds read low;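 further: compound exposure lasted between 18 and 24 h rather than exactly 24 h; 100% = carrier-treated control wells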
quantityKind: viability (%)
Unit % implied. Number only.

Record excerpt, results attached:
>>> testresult("COc1ccc(CCN(C)CCCC(C#N)(c2ccc(OC)c(OC)c2)C(C)C)cc1OC (centres undefined)")
73
>>> testresult("Cc1ccc(-c2ccc(SCC(=O)Nc3nonc3C)nn2)cc1")
94
>>> testresult("C=CCN1C(=O)/C(=C2/Sc3ccccc3N2C)SC1=Nc1c(C)n[nH]c1C")
107
>>> testresult("Cn1c(=O)c2c(nc(CN3CCCCC3)n2CCCc2ccccc2)n(C)c1=O")
122

Query: Note down viability recorded for "Nc1cc(N)nc(SCc2ccccc2)n1"
Reply: 94

Query: Check the records and state viability for "O=C(CCCCCn1c(=S)[nH]c2cc3c(cc2c1=O)OCO3)N1CCN(Cc2ccccc2)CC1"
Reply: 83

Query: Find the measured viability of "CCOC(=O)N1CCN(Cc2ccccc2F)CC1" and report it.
Reply: 102

Query: Please give the documented viability of "Cc1nnc(SCc2nnc(-c3ccccc3Br)o2)n1-c1ccccc1"
Reply: 86

Query: For "O=C(CN1CCN(C2CCCCC2)CC1)Nc1ccccc1-c1ccccc1" , write its viability.
Reply: 90.5

Query: For the molecule "O=C(Nc1cnn(Cc2ccc(F)cc2)c1)c1cnccn1" , report viability.
Reply: 117

Query: Give recorded viability. "Cc1cnc(C(=O)Nc2ccc(N3CCN(C(=O)OC(C)(C)C)CC3)cc2)cn1"
Reply: 109

---

experiment: reversal of MRP1-mediated doxorubicin resistance, pilot screen, H69AR cells, doxorubicin co-treatment (AID 601); settings: H69AR cells + 2 uM doxorubicin, CellTiter-Glo, 72 h; at 10 µM; active compounds read high
// values below are reported differential viability (reversal)
Give your result in % as a bare value.

>>> testresult("COc1ccc(Nc2ncc3c(n2)CC(c2ccc(OC)cc2)CC3=O)cc1 (configuration not stated)")
3.81
>>> testresult("Cc1ccccc1OCc1nc2ccccc2c(=O)n1/N=C/c1ccco1")
8.3

Query: Report differential viability (reversal), nothing else, for this compound: "Cc1c(C)n(C(=O)CN2CCN(c3ccccn3)CC2)c2ccccc12"
Reply: -0.845

Query: Give the reported value of differential viability (reversal) for this record: "COc1ccc(S(=O)(=O)N2CCN(S(=O)(=O)c3ccc4c(c3)OCCO4)CC2)cc1C"
Reply: 17.5

Query: Supply differential viability (reversal) value. Item: "CCn1c(Cc2ccccc2)nnc1SCC(=O)Nc1cc(C)on1"
Reply: 7.78

Query: Answer with the recorded differential viability (reversal) for the compound listed here: "Cc1nn(C)c(C)c1NC(=O)CCSc1nc(-c2ccco2)cc(C(F)(F)F)n1"
Reply: 3.76

Query: Provide only the value of recorded differential viability (reversal) for "CCc1ccc(CCC(=O)Nc2ccc(C)c(C)c2)o1"
Reply: 7.16

Query: Annotate the compound "CCOc1ccccc1-n1c(SCC(=O)NC2CCCC2)nnc1-c1ccoc1C" with its measured differential viability (reversal).
Reply: 1.66

Query: For "CCN(CC)CCNC(=O)c1ccc(NC(C)=O)cc1" , write its differential viability (reversal).
Reply: -6.82

Query: Supply differential viability (reversal) value. Item: "COC(=O)c1ccc(CSc2nc3ccccc3s2)o1"
Reply: -19.3

Query: Consider the compound "CCOc1ccccc1NC(=O)CN(C)S(=O)(=O)c1cccc2nsnc12" . State its measured differential viability (reversal).
Reply: -1.12

Query: Provide only the value of recorded differential viability (reversal) for "CCCN1CCN(C(=O)Cn2cccc2C(=O)c2ccccc2)CC1"
Reply: 17.8

Query: Give differential viability (reversal) for the following compound: "Nc1nnnn1NCc1cccc(OCc2ccccc2)c1"
Reply: 15.4

Query: Give differential viability (reversal) for the following compound: "O=C(Nc1ccon1)c1cccc(S(=O)(=O)N2CCCC2)c1"
Reply: -10.9

Query: # return recorded differential viability (reversal) for entry "Cc1ccc(NC(=O)CN(C)S(=O)(=O)c2cccc3nsnc23)cc1Cl"
Reply: -7.79

Query: Give the measured differential viability (reversal) for "O=C(O)c1ccccc1S"
Reply: 6.9

Query: Name the recorded differential viability (reversal) of the compound listed here: "COC(=O)c1nnn(-c2ccccc2)c1N"
Reply: -1.73

Query: Let me know recorded differential viability (reversal) for "CC(=O)Nc1ccc(-c2cc3ccccc3o2)cc1" , thanks.
Reply: 12

Query: In one line, give reported differential viability (reversal) of the entry "CCOC(=O)c1c(C)oc2ccc(NS(=O)(=O)c3ccc4c5c(cccc35)C(=O)N4)cc12" .
Reply: 0.75

Query: Quickly give me recorded differential viability (reversal) for Cc1nnc(SCC(=O)Nc2ccc3c(c2)OCCO3)n1CC1CCCO1 (configuration not stated)
Reply: 3.46

Query: In one line, give reported differential viability (reversal) of the entry "Cc1nc(N)[nH]c(=O)c1CCC(=O)OCC(C)C" .
Reply: -2.31

Query: Kindly indicate its recorded differential viability (reversal). Item: "CN(C)CCN(Cc1ccccc1)c1ccccn1"
Reply: 8.55

Data provenance: PubChem BioAssay
